experiment: chemical genetic growth profiling, strain panel (AID 1159580);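 further: tested at 20 µM; growth read once vehicle control cultures reached saturation at 30 °C; 1 = growth at the plate median or of vehicle wells; lower values mean less growth of the strain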; settings: S. cerevisiae deletion strains, growth OD, locus YHR027C, strain rpn1, active compounds read low
About 2,000 (36%) of roughly 5,500 compounds were called active. Inconclusive results (about 18%) are left out. This is one part of the list.
Observed property: normalized growth

>>> data_value("COc1cc(OC)c2c(c1Cl)OC1(C2=O)C(O)=CC(=O)CC1C (configuration not stated)")
1.01
>>> data_value("C[C@]12CCC3c4ccc(O)cc4CCC3C1CC[C@@H]2OC(=O)CCC1CCCC1 (some centres not stated)")
0.995
>>> data_value("CCCCC(=O)O[C@H]1CCC2C3CCc4cc(O)ccc4C3CC[C@@]21C (some centres not stated)")
1.02
>>> data_value("Cc1nccc2c1[nH]c1ccccc12")
0.996
>>> data_value("O=C(O)c1cccc(O)c1O")
1.01
>>> data_value("COc1ccc2c(c1)[nH]c1c(C)nccc12")
0.991
>>> data_value("CCS(=O)(=O)CCn1c([N+](=O)[O-])cnc1C")
1.01
>>> data_value("CC(=O)Oc1ccc2c(c1)CCC1C2CC[C@@]2(C)C1CC[C@@H]2OC(C)=O (some centres not stated)")
0.995
>>> data_value("CN1Cc2c(N)cccc2C(c2ccccc2)C1 (configuration not stated)")
1.02
>>> data_value("Nc1ncnc2nc[nH]c12")
0.979
>>> data_value("CC(=O)N[C@@H](CC(=O)O)C(=O)O")
0.993
>>> data_value("FC(F)(F)COCC(F)(F)F")
1.02

Every entry's value here was drawn from PubChem BioAssay AID1159580.
